- Assay setup: Escherichia coli (strain K12); pH 7.5; Thermal; Intensity; HEPES 20mM; transition: 2; whole UniProt chain shown

[
  {
    "Protein": "Zinc chaperone YeiR wild type, P33030 (protein) MTRTNLITGFLGSGKTTSILHLLAHKDPNEKWAVLVNEFGEVGIDGALLADSGALLKEIPGGCMCCVNGLPMQVGLNTLLRQGKPDRLLIEPTGLGHPKQILDLLTAPVYEPWIDLRATLCILDPRLLLDEKSASNENFRDQLAAADIIVANKSDRTTPESEQALQRWWQQNGGDRQLIHSEHGKVDGHLLDLPRRNLAELPASAAHSHQHVVKKGLAALSLPEHQRWRRSLNSGQGYQACGWIFDADTVFDTIGILEWARLAPVERVKGVLRIPEGLVRINRQGDDLHIETQNVAPPDSRIELISSSEADWNALQSALLKLRLATTA",
    "Tm": "46.2 °C"
  }
]
